# Tested on: Acinetobacter
# Protocol: Antibacterial activity against multidrug-resistant Acinetobacter assessed as resistant isolates by CLSI M7-A7 broth microdilution method
# Format: functional
For each record, write down the corresponding Activity.
Return type: number; implicit unit %.

# input What Activity appears in the records for this compound with Acinetobacter? C[C@H]1COc2c(N3CCN(C)CC3)c(F)cc3c(=O)c(C(=O)O)cn1c23.C[C@H]1COc2c(N3CCN(C)CC3)c(F)cc3c(=O)c(C(=O)O)cn1c23.O
# output 87.5

# input Request: Activity, test system Acinetobacter, entry CCN1CCN(C(=O)N[C@@H](C(=O)N[C@@H]2C(=O)N3[C@@H]2SC(C)(C)[C@@H]3C(=O)O)c2ccccc2)C(=O)C1=O
# output 87.5

# input Find Activity (Acinetobacter) for the entry CC(C)(O/N=C(\C(=O)N[C@@H]1C(=O)N2C(C(=O)[O-])=C(C[n+]3ccccc3)CS[C@H]12)c1csc(N)n1)C(=O)O
# output 93.8

# input Query the reported Activity for Acinetobacter; item: C[C@@H](O)[C@H]1C(=O)N2C(C(=O)O)=C(SCCNC=N)C[C@H]12 [IMIPENEM ANHYDROUS]
# output 31.3

# input Value wanted: Activity (Acinetobacter) of entry CO/N=C(\C(=O)N[C@@H]1C(=O)N2C(C(=O)O)=C(CSc3nc(=O)c(O)nn3C)CS[C@H]12)c1csc(N)n1
# output 0
